Test system: Malme-3M
Assay: NCI tumour cell line growth inhibition, 48 h
Activity calls are given as the source filed them. No stated cut-off is given here; in the data, active = GI50 up to about 1.1 µM and inactive = higher.
readoutName: GI50

Recorded GI50, per entry:
* O/N=C/c1cc2c(cc1Br)OCO2 | > 100 µM (inactive)
* C=C(C(=O)O)[C@@H]1C[C@@H]2O[C@H]1CC(C)=CCC/C(C)=C/CC[C@@]2(C)O | > 100 µM (inactive)
* CCOC(=O)C12CCCC1(O)N(NC(=O)c1cccc(Cl)c1)C(C)=C2C(=O)OC (stereo not given) | > 100 µM (inactive)
* CCCCCCCCCCCCOP(=O)(O)OCC(N)C(=O)O (stereo not given) | > 100 µM (inactive)

Please turn your attention to the following entry.
Incoming: Value lookup for GI50; key = O=C(Nc1nnc(-c2ccc(Cl)cc2)o1)C(SC(=S)N1CCCCC1)c1ccccc1 (stereo not given)
Outgoing: 3.11 µM (inactive)
